- System: Staphylococcus aureus (ATCC25923)
- method: MIC, broth microdilution (CLSI), Staphylococcus aureus ATCC25923
- protocol-conditions: ATCC25923, read-out: S. aureus ("Clinical") MIC
readout-kind: MIC (µg/mL)

CN(C)CCCN1c2ccccc2Sc2cc(C(F)(F)F)cc(N)c21
47
NCCN1CCCC(Nc2cc(C(F)(F)F)cc3c2Nc2ccccc2S3)CC1 (stereo not drawn)
3
NCCN1CCC(Nc2cc(C(F)(F)F)cc3c2Nc2ccccc2O3)CC1
25
NCCN1CCC(Nc2cc(C(F)(F)F)cc3c2Nc2ccccc2S3)C1 (stereo not drawn)
6
NCCN1CCC(Nc2cc(C(F)(F)F)cc3c2Nc2ccc(Cl)cc2S3)CC1
4
FC(F)(F)c1cc(NC2CCNCC2)cc2c1Nc1ccccc1S2
23
NCCN(CCN)CCN1CCC(Nc2cc(C(F)(F)F)cc3c2Nc2ccccc2S3)CC1
4
NC1CCC(CNc2cc(C(F)(F)F)cc3c2Nc2ccccc2S3)CC1 (stereo not drawn)
8

a. NC1CCCC(C(=O)Nc2cc(Cl)cc3c2Nc2ccccc2S3)C1 (stereo not drawn)
b. CC(N)CC(=O)Nc1cc(C(F)(F)F)cc2c1N(CCCN(C)C)c1ccccc1S2 (stereo not drawn)
c. Cc1c(-c2ccc3c(c2)Sc2ccccc2N3CCCN(C)C)[nH]c2ccccc12
*Q* Returns the items ordered by MIC, from maximum to minimum. Lab note: final answer is the ordered label list.
*A* b, a, c
(b: 64 µg/mL, a: 24 µg/mL, c: 3 µg/mL)
